Cited source: ChEMBL document CHEMBL4402598

In this section we review reported Ki values for a set of compounds.
target_of_assay: UniProtKB P14416
Sequence (P14416 whole entry): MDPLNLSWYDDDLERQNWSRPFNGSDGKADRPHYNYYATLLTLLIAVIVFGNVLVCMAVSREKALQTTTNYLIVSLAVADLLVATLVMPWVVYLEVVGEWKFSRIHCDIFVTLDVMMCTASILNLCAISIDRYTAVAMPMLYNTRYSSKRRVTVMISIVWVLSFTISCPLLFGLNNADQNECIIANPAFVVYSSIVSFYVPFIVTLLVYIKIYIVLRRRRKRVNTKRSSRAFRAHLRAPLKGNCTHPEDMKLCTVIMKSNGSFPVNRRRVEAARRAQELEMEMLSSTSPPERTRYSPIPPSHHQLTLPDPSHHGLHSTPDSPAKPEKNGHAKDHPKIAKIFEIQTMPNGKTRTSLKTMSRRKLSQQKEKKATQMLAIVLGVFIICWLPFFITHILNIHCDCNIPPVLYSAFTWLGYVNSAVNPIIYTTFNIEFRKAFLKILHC
assay_notes: Displacement of [3H]-N-methylspiperone from recombinant human D2 receptor stably expressed in fibroblast cell membranes measured after 90 mins by microbeta scintillation counting method
Please give a number only; it is taken to be in nM.

Study these solved cases before continuing.
{"columns": ["compound", "Ki (nM)"],
 "data": [
  ["CCCN(CCCCNC(=O)c1cc2ccccc2[nH]1)CC1CC1c1cccc(Cl)c1Cl (racemic)", 1500],
  ["CCN(CCCSc1nnc(-c2ccccc2)n1C)CC1CC1c1cc(F)ccc1OCCF (stereo not given)", 845],
  ["CCCN(CCCCNC(=O)c1ccc(-c2ccccn2)cc1)C[C@H]1C[C@@H]1c1cc(F)ccc1OC.Cl", 1230]
]}

Alright, here's another compound for you.
## Task State its Ki on UniProtKB P14416: CCN(CCCCNC(=O)c1ccc2ccccc2c1)CC1CC1c1cc(Cl)ccc1OC (stereo not given)
## Result 408
